# key: entry, value: IC50
- measurement target: rat brain cortical membranes (GABA receptor complex, [35S]-TBPS binding)
- assay protocol: Steroid inhibition of [35S]-TBPS binding
- experimental parameters: 3 nM [35S]-TBPS, in the presence of 5 mM GABA

| entry smiles | IC50 |
| --- | --- |
| CC(C)[C@@H]1C[C@H]2[C@@H]3CC[C@H]4C[C@](C)(O)CC[C@]4(C)[C@H]3CC[C@]2(C)[C@H]1C(=O)Cn1cc(C#N)cn1 | ≥ 500 nM |
| CO[C@H]1CC[C@H]2[C@@H]3[C@@H](C)C[C@H]4C[C@](C)(O)CC[C@]4(C)[C@H]3CC[C@]12C | ≥ 500 nM |
| C[C@@H]1C[C@H]2C[C@](C)(O)CC[C@]2(C)[C@H]2CC[C@]3(C)[C@@H](C(=O)Cn4ncc5ccncc54)CC[C@H]3[C@H]12 | ≥ 500 nM |
| CC(=O)[C@H]1CC[C@H]2[C@@H]3[C@@H](C)C[C@H]4C[C@](C)(O)CC[C@]4(C)[C@H]3CC[C@]12C | ≥ 500 nM |
| C[C@@]1(O)CC[C@@]2(C)[C@@H](CC[C@@H]3[C@@H]2C[C@@H](O)[C@]2(C)[C@@H](C(=O)Cn4cc(C#N)cn4)CC[C@@H]32)C1 | ≥ 500 nM |
| CO[C@H]1C[C@H]2C[C@](C)(O)CC[C@]2(C)[C@H]2CC[C@]3(C)[C@@H](C(C)=O)CC[C@H]3[C@H]12 | ≥ 500 nM |
| Cc1nnnn1CC(=O)[C@H]1CC[C@H]2[C@@H]3[C@H](C)C[C@H]4C[C@](C)(O)CC[C@]4(C)[C@H]3CC[C@]12C | ≥ 500 nM |
| C[C@@]1(O)CC[C@@]2(C)[C@@H](CC[C@@H]3[C@@H]2C[C@@H](O)[C@]2(C)[C@@H](C#N)CC[C@@H]32)C1 | ≥ 500 nM |
| CC(=O)[C@H]1CC[C@H]2[C@@H]3[C@H](O)C[C@H]4C[C@](C)(O)CC[C@]4(C)[C@H]3CC[C@]12C | ≥ 500 nM |
| CO[C@@H]1C[C@H]2[C@@H](CC[C@H]3C[C@](C)(O)CC[C@@]32C)[C@@H]2CC[C@H](C(=O)Cn3cc(C#N)cn3)[C@@]12C | 10 to 50 nM |
| CO[C@@H]1C[C@H]2[C@@H](CC[C@H]3C[C@](C)(O)CC[C@@]32C)[C@@H]2CC[C@H](C#N)[C@@]12C | 100 to 500 nM |

Data origin: patent US20250092084A1
